The reported measurements were obtained from ChEMBL document CHEMBL5537115.

- Tested on: Klebsiella pneumoniae
- assay-info: Antibacterial activity against Klebsiella pneumoniae ATCC BAA-1902 assessed as bacterial growth inhibition incubated for 20 hrs by CLSI based broth microdilution method
- Format: functional
Catalogue of MIC readings, one per entry.

>  <smiles-str>
C[n+]1cc(-c2ccccc2)cc(/C=C/c2ccc(Cl)cc2)c1-c1ccccc1.[I-]

>  <qualifier-symbol>
>

>  <MIC [µg/mL]>
64

$$$$
>  <smiles-str>
C[n+]1cc2c3c(ccc2c2ccc4cc5c(cc4c21)OCO5)OCO3

>  <qualifier-symbol>
=

>  <MIC [µg/mL]>
64

$$$$
>  <smiles-str>
C[n+]1cc(-c2ccccc2)c(/C=C/c2ccc(C(C)(C)C)cc2)cc1-c1ccc(C(C)(C)C)cc1.[I-]

>  <qualifier-symbol>
=

>  <MIC [µg/mL]>
4

$$$$
>  <smiles-str>
Cc1ccc(/C=C/c2cc(-c3ccc(C(C)(C)C)cc3)[n+](C)cc2-c2ccccc2C)cc1.[I-]

>  <qualifier-symbol>
=

>  <MIC [µg/mL]>
8

$$$$
>  <smiles-str>
CN(C)[C@@H]1C(O)=C(C(N)=O)C(=O)[C@@]2(O)C(O)=C3C(=O)c4c(O)cccc4[C@@](C)(O)[C@H]3C[C@@H]12

>  <qualifier-symbol>
=

>  <MIC [µg/mL]>
32

$$$$
>  <smiles-str>
CC1(C)S[C@@H]2[C@H](NC(=O)[C@H](NC(=O)N3CCN(S(C)(=O)=O)C3=O)c3ccccc3)C(=O)N2[C@H]1C(=O)O

>  <qualifier-symbol>
>

>  <MIC [µg/mL]>
64

$$$$
>  <smiles-str>
Cc1ccccc1-c1c[n+](C)c(-c2ccc(C(C)(C)C)cc2)cc1/C=C/c1ccc(F)cc1.[I-]

>  <qualifier-symbol>
=

>  <MIC [µg/mL]>
8

$$$$
>  <smiles-str>
CCCCCOc1ccc(/C=C/c2cc(-c3ccccc3)[n+](C)cc2-c2ccccc2)cc1.[I-]

>  <qualifier-symbol>
=

>  <MIC [µg/mL]>
4

$$$$
